Measured T/C accompanies every entry in the list below.
Tested on: CD2F1 mice, L1210 leukemia ip, survival T/C
Assay Details: NCI In Vivo Anticancer Drug Screen. Data for tumor model L1210 Leukemia (intraperitoneal) in CD2F1 (CDF1) mice
Conditions Used: endpoint: mean survival time; dose: 50.0 mg/kg/injection; schedule: Q01DX001 (ip); vehicle: saline with Tween-80; higher = longer survival
Inconclusive results and toxic doses are left out.

S=C1OC(c2ccccc2)(c2ccccc2)c2ccsc21 | 95 % of control
CCCCCCCCCCCCCCCC[N+]1(C)CCSCC1 | 100 % of control

Item CC(=O)OC1CCC2(C)C(=CCC3C4CC(C=O)=C(Cl)NC4(C)CCC32)C1 (configuration not stated) has what recorded T/C?
95 % of control

Item C(=N\N=C\c1ccco1)/c1ccco1 has what recorded T/C?
97 % of control

Item CC1=C(C)C(=O)C(SC2CC(=O)OC2=O)=C(C)C1=O (configuration not stated) has what recorded T/C?
96 % of control

Item C1CCC(CCC2CCCC[N-]2)[N-]C1.[I][Zn][I] (configuration not stated) has what recorded T/C?
86 % of control

Item CC(C)(C)/C(=N\Nc1ccc([N+](=O)[O-])cc1[N+](=O)[O-])c1ccccc1 has what recorded T/C?
95 % of control

* * *

System: CD2F1 mice, L1210 leukemia ip, survival T/C
Assay Details: NCI In Vivo Anticancer Drug Screen. Data for tumor model L1210 Leukemia (intraperitoneal) in CD2F1 (CDF1) mice
Conditions Used: endpoint: mean survival time; dose: 12.5 mg/kg/injection; schedule: Q01DX005 (ip); vehicle: water; higher = longer survival
Inconclusive results and toxic doses are left out.
Measured Quantity: T/C

Consider the reported T/C for these compounds:
O=c1nc2c(ncn2C2OC(CO)C(O)C2O)c(NCCc2ccccc2)[nH]1 (centres undefined) | 93 % of control
O=c1[nH]c(=O)n(C2CC(O)C(CO)O2)cc1CN1CCCC1 (centres undefined) | 109 % of control
CSc1ncnc2c1ccn2C1OC(COP(=O)(O)O)C(O)C1O (centres undefined) | 105 % of control

Item CN(N)c1nc2c(=O)[nH]cnc2n1C1OC(CO)C(O)C1O (centres undefined) has what recorded T/C?
104 % of control

* * *

Tested on: CD2F1 mice, L1210 leukemia ip, survival T/C
Assay Details: NCI In Vivo Anticancer Drug Screen. Data for tumor model L1210 Leukemia (intraperitoneal) in CD2F1 (CDF1) mice
Conditions Used: endpoint: mean survival time; dose: 400.0 mg/kg/injection; schedule: Q04DX002 (ip); vehicle: saline with Tween-80; higher = longer survival
Inconclusive results and toxic doses are left out.
Measured T/C accompanies every entry in the list below.

Consider the reported T/C for these molecules:
Brc1nc(-c2ccccc2)cc(-c2ccccc2)c1-c1ccccc1 | 97 % of control
Cc1cc(=O)c(C#N)c(-c2ccccc2)[nH]1 | 87 % of control
CC(=NCC(C)N=C(C)c1ccccc1O)c1ccccc1O.[Ni] (configuration not stated) | 97 % of control
CCCCNP(=S)(NCCCC)NCCCC | 98 % of control
CC1(C)OCC(C2OC(C)(C)OC2C2COC(C)(C)O2)O1 (configuration not stated) | 101 % of control
O=c1[nH]cnc2c1ncn2CCCCCO | 94 % of control

Query molecule follows.
Item C/C(=N\Nc1ccc2ccccc2n1)c1ccccc1O has what recorded T/C?
110 % of control
